Molecular target: UniProtKB O00187
Test: MASP-2 co-crystallization, X-ray crystallography and structure analysis (H-bonds, van der Waals contacts)
Conditions: Table A1 (H-Bonds); GLY 656 N
Where a name gives a salt, the structure may show the parent alone.
measure.name: H-bond distance to MASP-2 GLY 656 atom N
I only need the number, thanks.

Qu. Please list H-bond distance to MASP-2 GLY 656 atom N recorded for the compound C[C@H](NC(=O)C1C[C@@H](c2ccccc2)CCN1)C(=O)NCc1ccc(C(=N)N)cc1 (stereo in doubt) [compound 1063]
Ans. 3.25

Qu. Give the reported H-bond distance to MASP-2 GLY 656 atom N for this compound. C[C@H](NC(=O)[C@H]1C[C@@H](c2ccccc2)CN1)C(=O)NCc1ccc2c(N)nccc2c1 [compound 1089]
Ans. 3.3

Qu. Give a short answer stating reported H-bond distance to MASP-2 GLY 656 atom N for C[C@H](NC(=O)[C@H](N)C1Cc2ccccc2C1)C(=O)NCc1ccc2nc(N)[nH]c2c1 [compound 1059] .
Ans. 3.13

Qu. Answer with the recorded H-bond distance to MASP-2 GLY 656 atom N for the compound listed here: C[C@H](NC(=O)[C@H]1Cc2c([nH]c3ccccc23)CN1)C(=O)NCc1ccc(C(=N)N)cc1 [compound 1097]
Ans. 3.12

Qu. Could you please provide reported H-bond distance to MASP-2 GLY 656 atom N for CC(=O)Nc1ccc(CCN[C@H](CCc2ccccc2)C(=O)N[C@@H](C)C(=O)NCc2ccc(C(=N)N)cc2)cc1 [compound 1345] ? Thanks!
Ans. 3.05

Qu. Supply reported H-bond distance to MASP-2 GLY 656 atom N belonging to this compound: C[C@H](NC(=O)[C@H](N)C1Cc2ccccc2C1)C(=O)NCc1ccc2c(N)nccc2c1 [compound 1088, Dihydrochloride]
Ans. 3.22

Qu. Report H-bond distance to MASP-2 GLY 656 atom N for Cc1nc(N)ccc1CNC(=O)[C@H](C)NC(=O)c1cc(Cc2ccccc2)n[nH]1 [compound 1367]
Ans. 3.15

Qu. Answer with the recorded H-bond distance to MASP-2 GLY 656 atom N for the compound listed here: Cc1cc(Cl)cc(CNC(=O)[C@H](C)NC(=O)[C@H]2C[C@H](Cc3ccccc3)CN2)c1O [compound 1307]
Ans. 2.95

Qu. Assign H-bond distance to MASP-2 GLY 656 atom N to the following record: C[C@H](NC(=O)[C@H]1C[C@H](Cc2ccccc2)CN1)C(=O)NCc1cc(Cl)ccc1-n1cnnn1 [compound 1371, Hydrochloride]
Ans. 3.18

Qu. Input N=C(N)c1ccc(CNC(=O)[C@@H]2CCN2C(=O)[C@H](NCC(=O)O)C2Cc3ccccc3C2)cc1 [compound 1129] , output reported H-bond distance to MASP-2 GLY 656 atom N.
Ans. 2.93

Qu. # return recorded H-bond distance to MASP-2 GLY 656 atom N for input Cc1nc(N)ccc1CNC(=O)[C@H](C)NC(=O)[C@H]1C[C@H](Cc2cccc(-c3ccccc3)c2)CN1 [compound 1406]
Ans. 3.28

Qu. Determine from records and report H-bond distance to MASP-2 GLY 656 atom N for Cc1nc(N)ccc1CNC(=O)[C@H](C)NC(=O)[C@H]1C[C@H](Cc2ccc(-c3ccccc3)cc2)CN1 [compound 1351]
Ans. 3.25

Qu. Let me know recorded H-bond distance to MASP-2 GLY 656 atom N for Cc1nc(N)ccc1CNC(=O)[C@H](C)NC(=O)[C@H]1C[C@H](Cc2ccccc2Br)CN1 [compound 1372, Di-trifluoroacetate salt] , thanks.
Ans. 3.23

Qu. Give H-bond distance to MASP-2 GLY 656 atom N for C[C@H](NC(=O)[C@@H](CCc1ccccc1)NCCCc1ccc(O)cc1)C(=O)NCc1ccc(C(=N)N)cc1 [compound 1145]
Ans. 3.09

Qu. Quote H-bond distance to MASP-2 GLY 656 atom N reported for C[C@H](NC(=O)[C@H]1C[C@@H](c2ccccc2)CCN1)C(=O)NCc1cnc2[nH]cc(Cl)c2c1 [compound 1433] please.
Ans. 3.13

Qu. Provide H-bond distance to MASP-2 GLY 656 atom N value for the following compound: C[C@H](NC(=O)[C@H](N)CCc1cc(Cl)cc(Cl)c1)C(=O)NCc1ccc(C(=N)N)cc1 [compound 1118]
Ans. 3.07

Qu. Report measured H-bond distance to MASP-2 GLY 656 atom N; entry is C[C@H](NC(=O)c1cc(-c2ccccc2)c[nH]1)C(=O)NCc1ccc(C(=N)N)cc1 [compound 1030]
Ans. 3.12

Qu. Answer with reported H-bond distance to MASP-2 GLY 656 atom N of C[C@H](NC(=O)[C@H]1C[C@H](Cc2ccccc2)CN1)C(=O)NCc1cnc2[nH]cc(Cl)c2c1 [compound 1334]
Ans. 3.16

Qu. Give the measured H-bond distance to MASP-2 GLY 656 atom N for Cc1nc(N)ccc1CNC(=O)[C@H](C)NC(=O)[C@H]1C[C@H](Cc2ccccc2)CN1 [compound 1304]
Ans. 3.2

Qu. Annotate the compound C[C@H](NC(=O)[C@H](N)CCc1ccccc1)C(=O)NCc1ccc(C(=N)N)cc1 [compound 1024] with its measured H-bond distance to MASP-2 GLY 656 atom N.
Ans. 3.06

Qu. Read off the recorded H-bond distance to MASP-2 GLY 656 atom N for N=C(N)c1ccc(CNC(=O)C(CF)NC(=O)[C@H](N)CCc2ccccc2)cc1 (stereo partly shown) [compound 1050, Dihydrochloride]
Ans. 3.18

Qu. Read off the recorded H-bond distance to MASP-2 GLY 656 atom N for Cc1nc(N)ccc1CNC(=O)[C@H](C)NC(=O)[C@H]1C[C@@H](c2ccccc2)CCN1C [compound 1441]
Ans. 3.2

Qu. Using known records, supply H-bond distance to MASP-2 GLY 656 atom N for CNC(=O)c1ccc2c(=O)n(Cc3ccccc3)c(=O)n(CC(=O)NCc3ccc(C(=N)N)cc3)c2c1 [compound 2018]
Ans. 3.26

Qu. // Input: C[C@H](NC(=O)[C@@H](CCc1ccccc1)NCc1ccc(N2CCOCC2)cc1)C(=O)NCc1ccc(C(=N)N)cc1 [compound 1149] . Output its H-bond distance to MASP-2 GLY 656 atom N only.
Ans. 3.24

Qu. Give the value of H-bond distance to MASP-2 GLY 656 atom N reported for the following: Cc1nc(N)ccc1CNC(=O)[C@H](C)NC(=O)[C@H]1C[C@@H](c2ccccc2)CCN1CCC(=O)O [compound 1411, Trifluoroacetate salt]
Ans. 3.07

Qu. Let me know recorded H-bond distance to MASP-2 GLY 656 atom N for Cc1nc(N)ccc1CNC(=O)[C@H](C)NC(=O)[C@H]1C[C@H](Cc2cccc(Cl)c2)CN1 [compound 1328] , thanks.
Ans. 3.33

Qu. Report H-bond distance to MASP-2 GLY 656 atom N for C[C@H](NC(=O)[C@H]1C[C@H](c2ccccc2)CN1)C(=O)NCc1ccc(C(=N)N)cc1 [compound 1036]
Ans. 3.22

Qu. State its H-bond distance to MASP-2 GLY 656 atom N for this compound: Cc1cnc(NCCc2ccccc2)c(=O)n1CC(=O)NCc1ccc2nc(N)[nH]c2c1 [compound 1492]
Ans. 3.06

###

Target: MASP-2 CCP2-SP (Homo sapiens (Human), UniProt O00187)
Sequence (O00187 445-686): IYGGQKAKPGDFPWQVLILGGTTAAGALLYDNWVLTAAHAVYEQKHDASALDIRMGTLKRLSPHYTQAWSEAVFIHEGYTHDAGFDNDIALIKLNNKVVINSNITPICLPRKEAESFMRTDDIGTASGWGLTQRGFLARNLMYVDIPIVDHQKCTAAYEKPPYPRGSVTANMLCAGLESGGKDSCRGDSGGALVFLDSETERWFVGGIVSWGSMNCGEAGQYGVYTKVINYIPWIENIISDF
Sequence (O00187 364-432 partner): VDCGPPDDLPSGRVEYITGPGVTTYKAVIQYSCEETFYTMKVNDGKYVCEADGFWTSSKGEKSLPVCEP
Test: MASP-2 co-crystallization, X-ray crystallography and structure analysis (H-bonds, van der Waals contacts);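 on Ligand-pharmacophore element distance, pharmacophore element C3: distance from averaged pharmacophore element to bound ligand; missing value means element absent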
Conditions: Table A4-1; element C3
Please respond with reported Ligand-pharmacophore element distance, pharmacophore element C3 for every item in the list.
Keep the answer to the number alone.

Qu. Entry Cc1nc(N)ccc1CNC(=O)C(C)NC(=O)[C@H]1C[C@H](c2cccc(-c3ccccc3)c2)CN1 (stereo in doubt) [compound 1360] needs its Ligand-pharmacophore element distance, pharmacophore element C3 filled in; supply it.
Ans. 0.11

Qu. Name the recorded Ligand-pharmacophore element distance, pharmacophore element C3 of the compound listed here: Cc1cc(Cl)cc(CNC(=O)[C@H](C)NC(=O)[C@H]2C[C@H](Cc3ccccc3)CN2)c1O [compound 1307]
Ans. 0

Qu. Tell us which Ligand-pharmacophore element distance, pharmacophore element C3 value is on record for C[C@H](NC(=O)[C@H](N)CCc1cc(Cl)cc(Cl)c1)C(=O)NCc1ccc(C(=N)N)cc1 [compound 1118]
Ans. 0

Qu. Report measured Ligand-pharmacophore element distance, pharmacophore element C3; entry is N=C(N)c1ccc(CNC(=O)[C@@H]2CCN2C(=O)[C@H](NCC(=O)O)C2Cc3ccccc3C2)cc1 [compound 1129]
Ans. 0

###

Target: MASP-2 CCP2-SP (Homo sapiens (Human), UniProt O00187)
Assay: MASP-2 co-crystallization, X-ray crystallography and structure analysis (H-bonds, van der Waals contacts)
Design: unit not given beside the values
Conditions: Table A5-2 pharmacophore distance, S3/S4 region
Structures can show the parent of a compound that is named as a salt.
measure.name: d(CA5,N2)

Qu. Report measured d(CA5,N2) on MASP-2 CCP2-SP (Homo sapiens (Human), UniProt O00187); entry: C[C@H](NC(=O)[C@H]1C[C@@H](c2ccccc2)CN1)C(=O)NCc1ccc2c(N)nccc2c1.Cl.Cl
Ans. 5.10

Qu. Please report the measured d(CA5,N2) for N=C(N)c1ccc(CNC(=O)[C@@H]2CCN2C(=O)[C@H](NCC(=O)O)C2Cc3ccccc3C2)cc1 tested on MASP-2 CCP2-SP (Homo sapiens (Human), UniProt O00187).
Ans. 5.54

Qu. Retrieve d(CA5,N2) on MASP-2 CCP2-SP (Homo sapiens (Human), UniProt O00187); query Cc1cccc([C@H]2CN[C@@H](C(=O)N[C@@H](C)C(=O)NCc3ccc(N)nc3C)C2)c1 [compound 1257, Dihydrochloride]
Ans. 5.09

Qu. Under MASP-2 CCP2-SP (Homo sapiens (Human), UniProt O00187): report d(CA5,N2) of Cc1nc(N)ccc1CNC(=O)[C@H](C)NC(=O)[C@H]1C[C@H](Cc2ccccc2-c2ccccc2)CN1 [compound 1373, Di-trifluoroacetate salt] .
Ans. 6.60

Qu. Check MASP-2 CCP2-SP (Homo sapiens (Human), UniProt O00187) data and give d(CA5,N2) for C[C@H](NC(=O)[C@H]1C[C@H](c2ccccc2)CN1)C(=O)NCc1ccc2c(N)nccc2c1 .
Ans. 5.09

Qu. Provide d(CA5,N2), tested on MASP-2 CCP2-SP (Homo sapiens (Human), UniProt O00187), for CC(=O)Nc1ccc(CCN[C@H](CCc2ccccc2)C(=O)N[C@@H](C)C(=O)NCc2ccc(N)nc2C)cc1 [compound 1368, Dihydrochloride] .
Ans. 4.47

Qu. GET d(CA5,N2) where system = MASP-2 CCP2-SP (Homo sapiens (Human), UniProt O00187) and item = C[C@H](NC(=O)[C@H](N)C1Cc2ccccc2C1)C(=O)NCc1ccc2c(N)nccc2c1.Cl.Cl
Ans. 5.30

Where do the numbers come from? From patent US12195427B2.
